Hey, just so you know, these numbers are from ChEMBL document CHEMBL4261538.

Tested on: Escherichia coli
EXPERIMENT SUMMARY: Antibacterial activity against Escherichia coli at 50 ug/ml incubated for 24 hrs by agar well diffusion method
Assay type: functional
MEASUREMENT SETUP: read-out: DIZ
Some molecules, each annotated with its measured zone of inhibition at 50 µg/mL.

SMILES REPRESENTATION | OUTPUT UNIT | zone of inhibition at 50 µg/mL
CC(C)(C)OC(=O)N1CCC[C@H]1C(=O)Oc1ccc2c(=O)c3ccccc3oc2c1 | mm | 26
C[C@H](NC(=O)OC(C)(C)C)C(=O)Oc1ccc2c(=O)c3ccccc3oc2c1 | mm | 14
Cl.N[C@@H](Cc1c[nH]c2ccccc12)C(=O)Oc1ccc2c(=O)c3ccccc3oc2c1 | mm | 31
Cl.NCC(=O)Oc1ccc2c(=O)c3ccccc3oc2c1 | mm | 17
CC(C)(C)OC(=O)N[C@@H](Cc1ccc(O)cc1)C(=O)Oc1ccc2c(=O)c3ccccc3oc2c1 | mm | 27
CC[C@H](C)[C@H](N)C(=O)Oc1ccc2c(=O)c3ccccc3oc2c1.Cl | mm | 13
C[C@H](N)C(=O)Oc1ccc2c(=O)c3ccccc3oc2c1.Cl | mm | 19
CC(C)(C)OC(=O)N[C@@H](CS)C(=O)Oc1ccc2c(=O)c3ccccc3oc2c1 | mm | 26
CC[C@H](C)[C@H](NC(=O)OC(C)(C)C)C(=O)Oc1ccc2c(=O)c3ccccc3oc2c1 | mm | 12
